target: activated IR (Homo sapiens); construct: purchased Millipore 14-803; assay: In vitro IR enzymatic assay (ADP-Glo); format: biochemical; settings: compound 1 μM, ATP 50 μM
Sequence (P06213 28-1382): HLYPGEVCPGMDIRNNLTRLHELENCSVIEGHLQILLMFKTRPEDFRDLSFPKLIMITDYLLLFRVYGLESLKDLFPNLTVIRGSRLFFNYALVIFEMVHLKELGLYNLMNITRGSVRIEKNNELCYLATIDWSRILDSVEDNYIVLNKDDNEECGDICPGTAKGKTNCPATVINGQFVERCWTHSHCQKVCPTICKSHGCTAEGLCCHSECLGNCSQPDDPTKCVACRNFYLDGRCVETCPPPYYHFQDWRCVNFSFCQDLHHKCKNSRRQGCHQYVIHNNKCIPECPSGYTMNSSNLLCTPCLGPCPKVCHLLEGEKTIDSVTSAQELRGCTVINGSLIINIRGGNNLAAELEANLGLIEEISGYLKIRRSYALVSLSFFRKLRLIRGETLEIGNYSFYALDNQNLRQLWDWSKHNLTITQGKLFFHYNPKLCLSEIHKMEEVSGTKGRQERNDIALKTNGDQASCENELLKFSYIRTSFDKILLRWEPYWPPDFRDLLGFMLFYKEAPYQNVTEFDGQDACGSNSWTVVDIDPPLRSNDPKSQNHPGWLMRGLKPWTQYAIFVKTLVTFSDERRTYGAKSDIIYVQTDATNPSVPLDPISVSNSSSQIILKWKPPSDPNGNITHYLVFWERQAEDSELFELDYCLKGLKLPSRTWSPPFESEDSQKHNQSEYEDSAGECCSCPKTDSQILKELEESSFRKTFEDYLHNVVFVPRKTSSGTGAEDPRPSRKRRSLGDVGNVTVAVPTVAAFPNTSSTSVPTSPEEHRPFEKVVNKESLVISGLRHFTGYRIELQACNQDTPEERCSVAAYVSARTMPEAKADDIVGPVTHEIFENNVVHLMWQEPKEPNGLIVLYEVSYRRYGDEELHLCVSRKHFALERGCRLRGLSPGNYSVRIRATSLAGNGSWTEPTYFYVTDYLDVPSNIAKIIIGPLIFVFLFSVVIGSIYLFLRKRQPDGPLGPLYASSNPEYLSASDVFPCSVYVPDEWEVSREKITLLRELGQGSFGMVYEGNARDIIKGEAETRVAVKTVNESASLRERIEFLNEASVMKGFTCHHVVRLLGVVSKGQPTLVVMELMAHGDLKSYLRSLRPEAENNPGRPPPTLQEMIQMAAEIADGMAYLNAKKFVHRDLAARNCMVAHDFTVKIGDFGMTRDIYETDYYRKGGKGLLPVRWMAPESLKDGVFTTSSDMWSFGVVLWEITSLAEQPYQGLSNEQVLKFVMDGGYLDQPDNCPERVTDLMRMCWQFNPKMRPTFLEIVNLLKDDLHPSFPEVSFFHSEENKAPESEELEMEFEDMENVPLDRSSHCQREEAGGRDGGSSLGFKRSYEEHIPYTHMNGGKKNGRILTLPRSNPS
result_type: inhibition at 1 µM (%)

Entry CC1(C)CCN(C(=O)[C@@H]2CCCN2c2nc3c(c(Nc4cc(C5CCCC5)n[nH]4)n2)CCC3)CC1 [135b] ; assay system activated IR (Homo sapiens); inhibition at 1 µM recorded at 11

a: O=C(Nc1nccs1)[C@@H]1CCCN1c1nc2c(c(Nc3cc(C4CCCC4)[nH]n3)n1)CCC2 [133b]
b: CC(C)c1cc(Nc2nc(N3CCC[C@H]3C(=O)N3CCCC3)nc3c2CCC3)n[nH]1 [138b]
Data request: Of the two listed items, a and b , which carries the larger inhibition at 1 µM figure? # reply format: chosen label
Data returned: a
